Hello, the source for this data is PubChem BioAssay, in case you need it.

Test: viability loss with induced miR-34 in A549 – imaging, A549 dox-inducible miR-34, nuclei and caspase counts, primary screen (AID 1347080)
Settings: A549 miR-34 inducible, Hoechst nuclei count, 48 h; measured here: total cells with miR-34 induction; stronger effect = lower value
Hi! Just check whether cell count is below 6000. Below gives 1 (yes), equal or above gives 0 (no).

Field: example entries. Status: answers known.
INSERT INTO assay_data (compound, cat) VALUES
  ('COc1cc(N2CCC(N(C)C)CC2)ccc1Nc1ncc(Cl)c(Nc2ccccc2P(C)(C)=O)n1', '1 (yes)'),
  ('O=C1c2ccccc2C(Cc2ccnc(F)c2)(Cc2ccnc(F)c2)c2ccccc21', '0 (no)'),
  ('COc1cc2c(cc1OC)C1CC(=O)C(CC(C)C)CN1CC2 (stereo not given)', '0 (no)'),
  ('CCCCCCCC/C=C\CCCCCCCC(=O)C(F)(F)F', '0 (no)'),
  ('CCCCC/C=C\C/C=C\CCCCCCCC(=O)O[C@H](COC(=O)CCCCCCCCCCCCCCC)COP(=O)(O)OCCN', '1 (yes)');

Please determine if CN(C)C(=O)c1cc2cnc(Nc3ccc(N4CCNCC4)cn3)nc2n1C1CCCC1 is below 6000 in terms of cell count.
1 (yes)

* * *

Assay: viability loss in pontine glioma line – cell-based, SU-DIPG-XIII, MIPE4.0, CellTiter-Glo, qHTS, dose response (AID 1347061);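 also: cells exposed to compound for 48 hours before readout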
Details: CellTiter-Glo ATP luminescence
Results filed as inconclusive are left out. Calls of active or inactive are those of the source. The limit is not given here; nearly all actives have AC50 up to about 37 µM.
Response enum: true for active, false for inactive

INSERT INTO measurements (compound, cat) VALUES
  ('CC(C)[C@H](O)C(=O)N[C@@H](C)C(=O)N[C@@H]1C(=O)N(C)CCc2ccccc21', 'false'),
  ('CC(=O)OCCN1C(=O)c2c(C)nc3ccc(S(=O)(=O)N4CCOCC4)cc3c2C1=O', 'false');

Per the records of this test, what outcome belongs to C#Cc1cccc(Nc2ncnc3cc(OC)c(OCCCCCCC(=O)NO)cc23)c1 ?
true

# outcome recorded in this test, key = COc1nc(-c2ccc3c(c2)OCO3)n(-c2ccc(NC(=O)CSc3ccccc3)cc2)n1
false

* * *

Experiment: drug combination growth inhibition, ovarian cancer – cell-based, oncology-focused library, rucaparib conditional, profiling panel (AID 1508598)
Conditions: patient-derived ovarian cancer cells, CellTiter-Glo viability, 144 h; at 1.25 µM; OCI-C5x cells; with rucaparib 10 µM; stronger effect = lower value; 100% = cells with rucaparib alone
Readout Name: viability (%)
Give the quantity in %, number only.

Examples with their reported viability follow.
INSERT INTO results (compound_smiles, readout_name, quantitative_readout) VALUES
  ('COc1ccc(S(=O)(=O)Nc2cccnc2Nc2ccc(O)cc2)cc1', 'viability', 50),
  ('C#Cc1cccc(Nc2ncnc3cc(OC)c(OCCCCCCC(=O)NO)cc23)c1', 'viability', 10.5),
  ('Cc1nc(N)sc1-c1ccnc(Nc2ccc(N3CCOCC3)cc2)n1', 'viability', 101),
  ('CN1CCN(CCOc2cc(OC3CCOCC3)c3c(Nc4c(Cl)ccc5c4OCO5)ncnc3c2)CC1', 'viability', 91.7),
  ('CC(C)c1ccccc1Cc1cc(C(=O)Nc2ccc(S(=O)(=O)c3ccccc3C(C)(C)C)cc2)c(O)c(O)c1O', 'viability', 106),
  ('COCCOc1nc(-c2ccc(Cl)c(Cl)c2)n(-c2ccc(NC(=O)CCl)cc2)n1', 'viability', 97.1),
  ('CCOc1cc(N2CCC(O)CC2)ccc1Nc1ncc2c(n1)N(C)c1ccccc1C(=O)N2C', 'viability', 101),
  ('O=C(O)c1ccc(O)c2ncccc12', 'viability', 110),
  ('CCCCc1nc2cc(/C=C/C(=O)NO)ccc2n1CCN(CC)CC', 'viability', 28.3);

Moving on to another compound below.
Would you mind telling me what viability value was observed for CN(C)Cc1ccc(-c2nc3cccc4c3n2CCNC4=O)cc1 ?
109
